System: Human papillomavirus type 1a E7 protein (residues 1-88)
Assay: HPV1a E7 small-molecule binders, primary screen, biochemical, small-molecule microarray, residues 1-88, 635 nm (AID 1129)
Conditions: small-molecule microarray binding, fluorescence 635 nm; higher = more signal
Use label 1 when the recorded composite z-score is no lower than 0.8; use label 0 when it is lower.

Worked set:
Check the entry `NC(=O)[C@@H]1[C@H]2C(=O)O[C@H](c3ccccc3)[C@H](c3ccccc3)N2[C@H](c2ccc(O)cc2)[C@@]12C(=O)Nc1ccc(C#CC3(O)CCCCCC3)cc12` : does composite z-score equal or exceed 0.8? label 0

Check the entry O=C1C2C=CC(C(O)C3CCCCC3)N(Nc3ccc([N+](=O)[O-])cc3)C2C(=O)N1c1ccccc1 (centres undefined) : does composite z-score equal or exceed 0.8? label 1

***
Check the entry `C=C(CCCC)C(=O)CC[C@H](OC(=O)c1cccnc1)c1ccccc1OCCO` : does composite z-score equal or exceed 0.8? label 0

Check the entry `CC(C)C(=C=CC[C@@H](O)c1ccccc1OCCO)CCO` : does composite z-score equal or exceed 0.8? label 0

Check the entry `C=CCNC(=O)[C@H]1[C@@H]2C(=O)O[C@@H](c3ccccc3)[C@@H](c3ccccc3)N2[C@@H](c2ccc(OCCO)cc2)[C@]12C(=O)N(C(=O)OCCOC)c1ccccc12` : does composite z-score equal or exceed 0.8? label 1

Check the entry `C=CCOC(=O)[C@H]1[C@@H]2C(=O)O[C@@H](c3ccccc3)[C@@H](c3ccccc3)N2[C@@H](c2ccc(OCCOC(=O)[C@H]3C[C@H]4C(=O)N5CCC[C@H]5C(=O)N4[C@H]3c3ccc(O)cc3)cc2)[C@]12C(=O)Nc1ccccc12` : does composite z-score equal or exceed 0.8? label 1

Check the entry `O=C(NCc1ccccc1)[C@@]1(Cc2ccccc2)N=C(c2ccc(OCCCO)cc2)O[C@H]1c1ccccc1` : does composite z-score equal or exceed 0.8? label 1

Check the entry `COCCOC(=O)N1C(=O)[C@@]2(c3cc(C#CC4=CCCCC4)ccc31)[C@H](c1ccc(O)cc1)N1[C@H](c3ccccc3)[C@H](c3ccccc3)OC(=O)[C@H]1[C@@H]2C(N)=O` : does composite z-score equal or exceed 0.8? label 1

Data provenance is PubChem BioAssay.
